The measurements presented in this section are drawn from patent US8470765B2.

Tested on: Pseudomonas aeruginosa ATCC 27853
assay: microbe, parasite or virus in culture
Format: cell-based
conditionContext: Table 4; two tests, first/second value where not identical
No end group written: not given here.
Documented MIC Pseudomonas aeruginosa across a set of substances

substance | MIC Pseudomonas aeruginosa
MLKLIFLHRLKRMRKRLKRK-NH2 [SRP-10] | 16/32
Ac-KLIFLRELRRLRKRLKRKLR-NH2 [SRP-20] | 8/16
LIFLHRLKRMRKRLKRKLRL-NH2 [SRP-12] | 16/32
KNLRRIIRKIIHIIKKYG-NH2 [Ovispirin-1, reference compound] | 16/32
Ac-GRLKRMGKRLKRKIQKWARW-NH2 [SRP-18] | 4/8
IFLHRLKRMRKRLKRKLRLW-OH [SRP-7] | 8/16
RLKRMRKRLKRKLRLW-NH2 [SRP-17] | 32/64

###

System: Trichophyton mentagrophytes NBRC6124
conditionContext: NBRC6124
No end group written: not given here.
readoutLabel: MIC Trichophyton mentagrophytes (µg/mL)

substance | testSystem | readoutLabel | uom | readoutNumber
RLKRMRKRLKRKLRLW-NH2 [SRP-17] | Trichophyton mentagrophytes NBRC6124 | MIC Trichophyton mentagrophytes | µg/mL | 16
GRLKRMGERLKRKIQKLIRL-NH2 [SRP-21] | Trichophyton mentagrophytes NBRC6124 | MIC Trichophyton mentagrophytes | µg/mL | 64
KLIFLHRLKRELRKRLKRKLR-NH2 [SRP-13] | Trichophyton mentagrophytes NBRC6124 | MIC Trichophyton mentagrophytes | µg/mL | 32
KNLRRIIRKIIHIIKKYG-NH2 [Ovispirin-1, reference compound] | Trichophyton mentagrophytes NBRC6124 | MIC Trichophyton mentagrophytes | µg/mL | 32
Ac-GRLKRMGKRLKRKIQKWARW-NH2 [SRP-18] | Trichophyton mentagrophytes NBRC6124 | MIC Trichophyton mentagrophytes | µg/mL | 16
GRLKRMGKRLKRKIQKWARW-NH2 [SRP-14] | Trichophyton mentagrophytes NBRC6124 | MIC Trichophyton mentagrophytes | µg/mL | 16
Ac-GRLKRMGERLKRKIQKWIRW-NH2 [SRP-19] | Trichophyton mentagrophytes NBRC6124 | MIC Trichophyton mentagrophytes | µg/mL | 32
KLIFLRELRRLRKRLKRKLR-NH2 [SRP-16] | Trichophyton mentagrophytes NBRC6124 | MIC Trichophyton mentagrophytes | µg/mL | 32
IFLHRLKRMRKRLKRKLRLW-OH [SRP-7] | Trichophyton mentagrophytes NBRC6124 | MIC Trichophyton mentagrophytes | µg/mL | 32
RLKRMRKRLKRKLRLWHRKRYK-NH2 [SRP-8] | Trichophyton mentagrophytes NBRC6124 | MIC Trichophyton mentagrophytes | µg/mL | 32
Ac-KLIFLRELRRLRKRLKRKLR-NH2 [SRP-20] | Trichophyton mentagrophytes NBRC6124 | MIC Trichophyton mentagrophytes | µg/mL | 16
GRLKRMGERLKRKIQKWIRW-NH2 [SRP-15] | Trichophyton mentagrophytes NBRC6124 | MIC Trichophyton mentagrophytes | µg/mL | 32

###

System: Trichophyton rubrum NBRC9185
conditionContext: NBRC9185
No end group written: not given here.

substance | MIC Trichophyton rubrum (µg/mL)
GRLKRMGERLKRKIQKLIRL-NH2 [SRP-21] | 128
RLKRMRKRLKRKLRLWHRKRYK-NH2 [SRP-8] | 128
Ac-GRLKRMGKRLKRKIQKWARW-NH2 [SRP-18] | 32
Ac-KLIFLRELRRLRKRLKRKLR-NH2 [SRP-20] | 32
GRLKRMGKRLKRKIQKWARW-NH2 [SRP-14] | 32
KNLRRIIRKIIHIIKKYG-NH2 [Ovispirin-1, reference compound] | 64
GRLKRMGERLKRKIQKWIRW-NH2 [SRP-15] | 64
Ac-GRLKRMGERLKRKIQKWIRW-NH2 [SRP-19] | 64
